Test: stimulators of nuclear beta-catenin in C2C12, primary screen, imaging, WNT3A-conditioned medium, mouse C2C12, NPC library (AID 1117326); further: reference of the scale not given here
Settings: at 10 µM, active compounds read high
QUANTITY MEASURED: nuclear beta-catenin stimulation (%)
Numeric answer only, unit % assumed.

Below: 4 compounds and their reported nuclear beta-catenin stimulation.
* C[C@]12C=CC(=O)C=C1CC[C@@H]1[C@@H]2CC[C@@]2(C)[C@H]1CC[C@]2(C)O | 6.6
* COc1cc(N)c(Cl)cc1C(=O)NC1CN2CCC1CC2 (stereo unspecified) | -1.2
* NCCc1ccc(O)cc1 | -0.5
* CC(C)=CC1C(C(=O)OCc2cccc(Oc3ccccc3)c2)C1(C)C (stereo unspecified) | 1.3

-- ask # get_value(readout='nuclear beta-catenin stimulation', item= C1CN2CCC1CC2 )
-- reply 0.4

-- ask nuclear beta-catenin stimulation lookup needed for O=C(O)c1cc(Oc2ccc(C(F)(F)F)cc2Cl)ccc1[N+](=O)[O-] , thanks.
-- reply 1.4

-- ask Which nuclear beta-catenin stimulation value is on record for O=c1oc2ccccc2c(O)c1C(CC(O)c1ccc(-c2ccc(Br)cc2)cc1)c1ccccc1 (stereo unspecified) ?
-- reply 8.3

-- ask Please look up its nuclear beta-catenin stimulation: CC(C)NC(C)C
-- reply 14.9

-- ask Which nuclear beta-catenin stimulation value belongs to COC[C@@H](NC(C)=O)C(=O)NCc1ccccc1 ?
-- reply 0.6

-- ask What value of nuclear beta-catenin stimulation has been recorded for this entry: CC(=O)O[C@H]1C[C@H](O[C@H]2[C@@H](O)C[C@H](O[C@@H]3[C@@H](O)C[C@H](O[C@H]4CC[C@@]5(C)[C@H](CC[C@@H]6[C@H]5C[C@@H](O)[C@]5(C)[C@@H](C7=CC(=O)OC7)CC[C@]65O)C4)O[C@@H]3C)O[C@@H]2C)O[C@H](C)[C@H]1O[C@@H]1O[C@H](CO)[C@@H](O)[C@H](O)[C@@H]1O
-- reply 1.6

-- ask What does the record list as nuclear beta-catenin stimulation for CCC(CC)(CNC(=O)CCCO)c1cccc(OC)c1 ?
-- reply -1.1

-- ask nuclear beta-catenin stimulation for CCNc1nc(Cl)nc(NCC)n1 ?
-- reply 0.8

-- ask Value lookup for nuclear beta-catenin stimulation; key = Cc1ccc([N+](=O)[O-])[c]2c1[O][Hg]2
-- reply 20.9

-- ask Entry under review: C[C@]12C[C@@H]3S[C@H]3C[C@@H]1CC[C@H]1[C@H]3CC[C@@H](O)[C@@]3(C)CC[C@@H]12 . Reported nuclear beta-catenin stimulation?
-- reply -1

-- ask Fill in the blank: the reported nuclear beta-catenin stimulation of N[C@@H](Cc1ccc(N(CCCl)CCCl)cc1)C(=O)O is ____.
-- reply 5.3

-- ask Reported nuclear beta-catenin stimulation for CCOP(=S)(OCC)SCSc1ccc(Cl)cc1 : what is it?
-- reply 1.3

-- ask Any idea what its nuclear beta-catenin stimulation is? The compound is NNc1ccccc1
-- reply 0.8

-- ask # lookup: nuclear beta-catenin stimulation of CCCCC/C=C\C/C=C\C/C=C\C/C=C\CCCC(=O)NCC(=O)O
-- reply 0.8

-- ask Given the compound CC(Cc1ccccc1)N(C)Cc1ccco1 (stereo unspecified) , what is its reported nuclear beta-catenin stimulation?
-- reply -0.5

-- ask nuclear beta-catenin stimulation for NCCC[C@H](N)C(=O)O ?
-- reply 1.2

-- ask Consider the compound shown here: O=C1c2ccccc2C(=O)C1C(=O)C(c1ccccc1)c1ccccc1 What is its recorded nuclear beta-catenin stimulation?
-- reply 0.3

-- ask Any idea what nuclear beta-catenin stimulation was measured for CCOC(=O)c1ncn2c1CN(C)C(=O)c1c(I)cccc1-2 ?
-- reply -0.1

Cited source: PubChem BioAssay
